Data origin: the supplement of paper PMC12669032

system: Parabacteroides distasonis; experiment: growth AUC relative to DMSO control (median of replicates) (fraction); higher = more growth (less inhibition), active = hit call of the paper; conditions: 20 µM; 24 h
readout_name: growth AUC

Reported growth AUC, molecule N#Cc1ccc(CC(=NNC(=O)Nc2ccc(OC(F)(F)F)cc2)c2cccc(C(F)(F)F)c2)cc1 (mixture of isomers) : ____
0.999 (inactive)

###

Some compounds, each annotated with its measured growth AUC.
tested on: Bacteroides uniformis; experiment: growth AUC relative to DMSO control (median of replicates) (fraction); higher = more growth (less inhibition), active = hit call of the paper; conditions: 20 µM; 24 h
API note: the answer field is a bare number with no unit suffix.

O=c1cc(Cl)[nH]nc1-c1ccccc1 :: 1.01
CCCN(CCOc1c(Cl)cc(Cl)cc1Cl)C(N)=O :: 0.894
CC1(C)C(=O)Oc2ccc(OS(C)(=O)=O)cc21 :: 0.986
CCCCCCCCOC(=O)COc1cc(Cl)c(Cl)cc1Cl :: 0.982
COC(=O)Cc1cccc2ccccc12 :: 1

Consider the compound shown here: CC(C)CCCCCCc1ccc(O)cc1 What is its recorded growth AUC?
0.965

Can you handle CCc1cccc(C)c1NC(=O)CS(=O)(=O)[O-].[Na+] next?
0.991

###

tested on: Parabacteroides distasonis; assay: growth AUC relative to DMSO control (median of replicates) (fraction); higher = more growth (less inhibition), active = hit call of the paper; settings: 20 µM; 24 h
Could you label it condition met if measured growth AUC is 1 or higher, and condition not met otherwise?

Reference set, count: 5
CCCCOCCOC(=O)COc1ccc(Cl)cc1Cl :: condition not met
CC(C)NS(=O)(=O)NC(=O)c1cc(-n2c(=O)cc(C(F)(F)F)[nH]c2=O)c(F)cc1Cl :: condition met
CC(C)N(C)S(=O)(=O)NC(=O)c1cc(-n2c(=O)cc(C(F)(F)F)[nH]c2=O)c(F)cc1Cl :: condition not met
CCOC(=O)NCCOc1ccc(Oc2ccccc2)cc1 :: condition not met
CCNc1nc(N)[nH]c(=O)n1 :: condition met

Does growth AUC meet or surpass 1 for CC(=O)Oc1c(Cl)c(Cl)c(Cl)c(Cl)c1Cl ?
condition not met

What about this compound? Oc1c(Cl)cc(Cl)c(Cl)c1Cc1c(O)c(Cl)cc(Cl)c1Cl
condition not met

// repeat for CCc1cccc(C)c1N(C(=O)CS(=O)(=O)[O-])C(C)COC.[Na+] (stereo not given) and report
condition not met

What do you get for Br[C@@H]1CC[C@H](Br)[C@H](Br)CC[C@@H](Br)[C@@H](Br)CC[C@H]1Br ?
condition not met

// next record Cc1[nH]n(C)c(=O)c1C(=O)c1ccc(C(F)(F)F)cc1S(C)(=O)=O
condition met

###

system: Bacteroides thetaiotaomicron; assay: growth AUC relative to DMSO control (median of replicates) (fraction); higher = more growth (less inhibition), active = hit call of the paper; conditions: 20 µM; 24 h
Could you label it fulfilled if measured growth AUC is 1 or higher, and not fulfilled otherwise?

Before answering, review these 4 worked examples.
NC(=O)Cc1cccc2ccccc12 :: fulfilled
CNC(=O)Sc1ccc(OS(C)(=O)=O)cc1 :: not fulfilled
COC(=O)c1ccc(I)cc1S(=O)(=O)[N-]C(=O)Nc1nc(C)nc(OC)n1.[Na+] :: fulfilled
CCOC(=O)NCCOc1ccc(Oc2ccccc2)cc1 :: not fulfilled

Kindly review the next compound as well.
State whether the measured growth AUC reaches 1, counting equality as reaching it, for CC(Oc1ccc(Cl)cc1Cl)C(=O)NC(C)(C#N)C(C)C (stereo not given)
not fulfilled
